self-cleavage by entry:
B1: OR4K15 (parent)
chain: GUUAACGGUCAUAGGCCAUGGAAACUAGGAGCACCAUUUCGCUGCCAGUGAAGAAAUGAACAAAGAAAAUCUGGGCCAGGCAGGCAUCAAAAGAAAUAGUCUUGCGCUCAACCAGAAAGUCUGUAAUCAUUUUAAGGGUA

Variants of: B1
experiment_summary: self-cleavage, relative activity (ratio to wild type); higher = more cleavage; in vitro, sequencing; the parent is a self-cleaving ribozyme
reported_property: self-cleavage

| item_sequence | numeric_value |
| --- | --- |
| GUUAACGGUCAUAGGCCAUGGAAACUAGGAGCACCAUUUCGCUGCCAGCGAAGAAAUGAACAAAGAAAAUCUGGGCCAGGCAGGCAUCAAAAGAAAUAGUCUUGCGCUCAACCAGAAAGUCUGUAAUCAUUUUAAGGGUA [U49C] | 1.12 |
| GUUAACGGUCAUAGGCCAUGGACACUAGGAGCACCAUUUCGCUGCCAGUGAAGAAAUGAACAAAGAAAAUCUGGGACAGGCAGGCAUCAAAAGAAAUAGUCUUGCGCUCAACCAGAAAGUCUGUAAUCAUUUUAAGGGUA [A23C C76A] | 0.13 |
| GUUAACGGUCAUAGGCCAUGGAAACUAGGAGCACCAUUUCGCUGCCAGUGAAGAAAUGAACAAAGAAAAUCUGGGCCAGGCAGGCAUCGAAAGAGAUAGUCUUGCGCUCAACCAGAAAGUCUGUAAUCAUUUUAAGGGUA [A89G A95G] | 1.87 |
| GUUAACGGUCACAGGCCAUGGAAACUAGGAGCACCAUUUCGCUGCCAGUGAAGAAAUGAACAAAGAAAAUCUGGGCCAGGCAGGCAUCAAAAGAAACAGUCUUGCGCUCAACCAGAAAGUCUGUAAUCAUUUUAAGGGUA [U12C U97C] | 0.65 |
| GUUAACGGUCAUAGGCCAUGGAAACUAGGAGCACCAUUUCGCUGCCAGUGAAGAAAUGAACAAAGAAAAUCUGGGCCAGGCAGGCACCAAAAGAAAUAGUCUUGCGCUCAACCAGACAGUCUGUAAUCAUUUUAAGGGUA [U87C A117C] | 0 |
| GUUAACGGUCAUAGGCCACGGAAACUAGGAGCACCAUUUCGCUGCCAGUGAAGAAAUGAACAAAGAAAAUCUGGGCCAGGCAGGCAUCAAAAGAAAAAGUCUUGCGCUCAACCAGAAAGUCUGUAAUCAUUUUAAGGGUA [U19C U97A] | 1.34 |
| GUUAACGGUCAUAGGCCAUGGAAACUAGGAGCACCAUUUCGCUGCCAGUGAAGAAAUGAACAAAGAAAAUCUGGGCCAGGCAGGCAUCACAAGAAAUAGUCUUGCGCUCAACCAGAAAGUCUGUAAUCAUUUUAAGGGUA [A90C] | 1.55 |
| GUUAACGGUCAUAGGCCAUGGAUACUAGGAGCACCAUUUCGCUGCCAGUGAAGAAAUGAACAAAGAAAAUCAGGGCCAGGCAGGCAUCAAAAGAAAUAGUCUUGCGCUCAACCAGAAAGUCUGUAAUCAUUUUAAGGGUA [A23U U72A] | 0.41 |
| GUUAACGGUCAUAGGCCAUGGAAACUAGGAGCACCAUUUCGCUGCCAGUGGAGAAAUGAACAAAGAAAAUCUGGGCCAGGCAGGCAUCAAAAGAAAUAGUCUUGCGCUCAGCCAGAAAGUCUGUAAUCAUUUUAAGGGUA [A51G A111G] | 0.03 |
| GUUAACGGUCAUAGGCCAUGGAAACUAGGAGCACCAUUACGCUGCCAGUGAAGAAAUGAACAAAGAAAAUCUGGGCCAGGCAGGCAUCAAAAGGAAUAGUCUUGCGCUCAACCAGAAAGUCUGUAAUCAUUUUAAGGGUA [U39A A94G] | 1.47 |
| GUUAACGGUCAUAGGCCAUGGAAACUAGGAGCACCAUUUCGCUGCCAGUGAAGAAAUGAACAAAGAGAAUCUGGGCCAGGCGGGCAUCAAAAGAAAUAGUCUUGCGCUCAACCAGAAAGUCUGUAAUCAUUUUAAGGGUA [A67G A82G] | 0.6 |
| GUUAACGGUCAUAGGCCAUGGAAACUAGGAGCACCAUUUCGCUGCCGGUGAAGAAAUGAACAAAGGAAAUCUGGGCCAGGCAGGCAUCAAAAGAAAUAGUCUUGCGCUCAACCAGAAAGUCUGUAAUCAUUUUAAGGGUA [A47G A66G] | 0.23 |
| GUUAACGGUCAUAGGCCAUGGAAACUAGGAGCACCAUUUCGCUGCCAGUGAAGAAAUGAACAAAGAUAAUCUGGGCCAGGCAGGCAUCAAAAGAAAUAGUCUUGCGCUCAACCAGAAAGUCUGUAAUCUUUUUAAGGGUA [A67U A129U] | 1.14 |
| GUUGGCGGUCAUAGGCCAUGGAAACUAGGAGCACCAUUUCGCUGCCAGUGAAGAAAUGAACAAAGAAAAUCUGGGCCAGGCAGGCAUCAAAAGAAAUAGUCUUGCGCUCAACCAGAAAGUCUGUAAUCAUUUUAAGGGUA [A4G A5G] | 1.25 |
| GUUAACGGUCAUAGGCCAUGGAAACUAGGAGCGCCAUUUCGCUGCCAGUGAAGAAAUGAACAAAGAAAAUCUGGGCCAGGCAGGCAUCAAGAGAAAUAGUCUUGCGCUCAACCAGAAAGUCUGUAAUCAUUUUAAGGGUA [A33G A91G] | 0.29 |
| GUUAACGGUCAUAGGCCAUGGAAACUAGGAGCACCAUUUCGCUGCCAGUGAAGAAAUGAACAAAGAAAAUCUGGGCCAGGAAGGCAUCAAAAGAAAUAGUCUUACGCUCAACCAGAAAGUCUGUAAUCAUUUUAAGGGUA [C81A G104A] | 0.67 |
| GUUAACGGUCAUAGGCCAUGGAAACUAGGAGCACCAUUUCGCUGCCAGUGAAGAAAUGAACAAAGAAAAUCUGGGCCAGGCAGGCACCAAAAGGAAUAGUCUUGCGCUCAACCAGAAAGUCUGUAAUCAUUUUAAGGGUA [U87C A94G] | 1.04 |
| GAUAACGGUCAUAGGCCAUGGAAACUAGGAGCACCAUUUCGCUGCCUGUGAAGAAAUGAACAAAGAAAAUCUGGGCCAGGCAGGCAUCAAAAGAAAUAGUCUUGCGCUCAACCAGAAAGUCUGUAAUCAUUUUAAGGGUA [U2A A47U] | 0.78 |
| GUUAACGGUCAUAGGCCAUGGAAACUAGGAGCACCAUUUCGCUGCCAGUGGAGAAAUGAACAAAGAAAAUCUGGGCCAGGCAGGCAUCAAAAGAAAUAGCCUUGCGCUCAACCAGAAAGUCUGUAAUCAUUUUAAGGGUA [A51G U100C] | 1.87 |
| GUUAACGGUCAUAGGCCAUGGAAACUAGGAGCACCAUUUCGCUGCCAGUGAAGAAAUGAACAAAGAAAAUCUGGGCCAGGCAGGCAUCAAAAGAAAUAGUCUUGCGCUCAACCAGAAAGUCUGUUAUCAUCUUAAGGGUA [A125U U131C] | 2.47 |
| GUUAACGGUCAUAGGCCAUGGAAACUAGGAGCACCAUUUCGCUGCCAGUGAAGAAAUGAACAAAGAUAAUCUGGGCCAGGCAGGCAUCAAAAGGAAUAGUCUUGCGCUCAACCAGAAAGUCUGUAAUCAUUUUAAGGGUA [A67U A94G] | 1.22 |
| GUUAACGGUCAUAGGCCAUGGAACCUAGGAGCACCACUUCGCUGCCAGUGAAGAAAUGAACAAAGAAAAUCUGGGCCAGGCAGGCAUCAAAAGAAAUAGUCUUGCGCUCAACCAGAAAGUCUGUAAUCAUUUUAAGGGUA [A24C U37C] | 1.29 |
